The values you see were collected from patent US20190352420A1.

- measurement.target: T1, recombinant human CD73 protein (human, UniProt P21589 27-549, limits assumed)
- T1 sequence (looked up): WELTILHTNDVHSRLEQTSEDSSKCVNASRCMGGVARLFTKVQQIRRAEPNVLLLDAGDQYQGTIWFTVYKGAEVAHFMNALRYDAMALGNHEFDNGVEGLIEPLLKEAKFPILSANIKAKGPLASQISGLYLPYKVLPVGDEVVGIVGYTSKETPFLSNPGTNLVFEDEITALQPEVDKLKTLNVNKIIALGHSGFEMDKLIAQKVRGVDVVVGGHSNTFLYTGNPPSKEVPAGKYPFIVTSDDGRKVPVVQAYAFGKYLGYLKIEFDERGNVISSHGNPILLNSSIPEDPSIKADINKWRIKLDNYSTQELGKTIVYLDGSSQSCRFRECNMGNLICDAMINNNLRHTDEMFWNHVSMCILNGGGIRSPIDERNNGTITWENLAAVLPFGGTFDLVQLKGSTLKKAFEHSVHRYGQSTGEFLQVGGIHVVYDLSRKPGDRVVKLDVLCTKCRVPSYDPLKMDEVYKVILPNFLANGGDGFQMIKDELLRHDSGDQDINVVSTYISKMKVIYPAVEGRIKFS
- test.name: cell-based or functional assay
measured.property: IC90 of inhibition of CD73 enzymatic function (luciferase-based assay) (nM)

>  <binder>
C2 (antibody, human IgG1, kappa, L234A L235A, V domains shown, Humanized monoclonal antibody; also called anti-CD73 antibody C2) VH: QVQLVQSGAEVKKPGDSVKVSCKASGYTFTTYWMHWVRQAPGQGLEWMGAIYPGLSDTTYSQKFKGKVTMTRDTSTSTVYMKLSSLRSEDTAVYYCARLLDYAMDYWGQGTLVTVSS VL: DIQMTQSPSSLSASVGDRVTITCRASQDIRSYLNWHQQKPGKAPKLLIWYTSRLHSGVPSRFSGSGSGTDYTLTISSLEPEDFATYFCQQGETLPWTFGQGTKLEIKR

>  <value.observed>
0.49

$$$$
>  <binder>
C6 (antibody, human IgG1, kappa, L234A L235A, V domains shown, Humanized monoclonal antibody; also called anti-CD73 antibody C6) VH: QVQLVQSGAEVKKPGDSVKVSCKASGYTFTTYWMHWVRQAPGQGLEWMGAIYPGNSDTTYNQKFKGKVTMTRDTSTSTVYMKLSSLRSEDTAVYYCARLLDYAMDYWGQGTLVTVSS VL: DIQMTQSPSSLSASVGDRVTITCRASQDIRNYLNWHQQKPGKAPKLLIWYTSRLHSGVPSRFSGSGSGTDYTLTISSLQPEDFATYFCQQGNTLPWTFGQGTKLEIKR

>  <value.observed>
0.24

$$$$
